These entries and their values trace back to patent US20250241923A1.

# method.description: Pharmacokinetics, oral bioavailability in rats
# Format: in vivo
# measurement.setup: rat, plasma
readout: bioavailability

Notebook: CC[C@H](Nc1ncnc2[nH]cnc12)c1oc2ccccc2c(=O)c1-c1cccc(F)c1 [Compound A] , bioavailability read as > 72.4%

----------
# method.description: Pharmacokinetics, oral bioavailability in dogs
# Assay type: in vivo
# measurement.setup: dog, plasma
readout: bioavailability

// field: bioavailability; key: CC[C@H](Nc1ncnc2[nH]cnc12)c1oc2ccccc2c(=O)c1-c1cccc(F)c1 ; value = > 100%

----------
# tgt: PI3Kγ (Mus musculus, UniProt Q9JHG7)
# Construct: endogenous in cells
# Sequence (Q9JHG7 whole entry): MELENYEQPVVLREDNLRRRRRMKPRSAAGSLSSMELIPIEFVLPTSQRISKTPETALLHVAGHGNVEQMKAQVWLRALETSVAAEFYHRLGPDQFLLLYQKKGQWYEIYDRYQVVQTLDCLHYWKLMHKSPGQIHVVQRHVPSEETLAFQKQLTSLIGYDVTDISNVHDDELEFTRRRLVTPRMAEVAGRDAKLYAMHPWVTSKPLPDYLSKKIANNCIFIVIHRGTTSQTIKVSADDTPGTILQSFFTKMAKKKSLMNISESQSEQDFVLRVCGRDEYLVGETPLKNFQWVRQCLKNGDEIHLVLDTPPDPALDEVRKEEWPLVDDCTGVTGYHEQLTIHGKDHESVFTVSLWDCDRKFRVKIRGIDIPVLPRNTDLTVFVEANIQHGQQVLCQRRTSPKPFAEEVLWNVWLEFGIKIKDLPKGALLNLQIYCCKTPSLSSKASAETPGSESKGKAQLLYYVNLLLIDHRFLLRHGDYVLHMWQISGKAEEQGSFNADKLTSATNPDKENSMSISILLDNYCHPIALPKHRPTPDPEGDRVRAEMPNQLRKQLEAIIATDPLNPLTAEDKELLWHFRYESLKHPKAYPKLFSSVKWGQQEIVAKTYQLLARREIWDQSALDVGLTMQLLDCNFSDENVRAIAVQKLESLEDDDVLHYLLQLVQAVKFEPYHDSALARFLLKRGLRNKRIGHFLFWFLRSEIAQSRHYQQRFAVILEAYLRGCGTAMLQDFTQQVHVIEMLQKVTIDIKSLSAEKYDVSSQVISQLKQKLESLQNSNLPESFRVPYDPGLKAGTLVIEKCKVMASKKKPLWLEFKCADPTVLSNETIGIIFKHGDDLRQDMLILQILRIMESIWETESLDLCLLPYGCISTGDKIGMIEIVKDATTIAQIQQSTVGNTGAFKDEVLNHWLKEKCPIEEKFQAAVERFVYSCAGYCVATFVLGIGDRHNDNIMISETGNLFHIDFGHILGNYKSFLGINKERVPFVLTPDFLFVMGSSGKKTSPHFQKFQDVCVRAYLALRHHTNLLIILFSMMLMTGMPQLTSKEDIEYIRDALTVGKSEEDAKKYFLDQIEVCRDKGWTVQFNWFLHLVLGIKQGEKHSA
# method.description: PI3K isoform cell-based assay: c5a induced pAKT in RAW macrophages
readout: EC50 (µM)
Numbers only, in µM.

Sample CC[C@H](Nc1ncnc2[nH]cnc12)c1oc2ccccc2c(=O)c1-c1cccc(F)c1 ; EC50 observed: 0.0223

----------
# method.description: Pharmacokinetics, oral bioavailability in mice
# Assay type: in vivo
# measurement.setup: mouse, plasma
readout: bioavailability (%)
Numbers only, in %.

Given item CC[C@H](Nc1ncnc2[nH]cnc12)c1oc2ccccc2c(=O)c1-c1cccc(F)c1 [Compound A] , the value recorded as its bioavailability is 21.6

----------
# tgt: PI3Kδ (Homo sapiens, UniProt O00329)
# Sequence (O00329 whole entry, canonical isoform): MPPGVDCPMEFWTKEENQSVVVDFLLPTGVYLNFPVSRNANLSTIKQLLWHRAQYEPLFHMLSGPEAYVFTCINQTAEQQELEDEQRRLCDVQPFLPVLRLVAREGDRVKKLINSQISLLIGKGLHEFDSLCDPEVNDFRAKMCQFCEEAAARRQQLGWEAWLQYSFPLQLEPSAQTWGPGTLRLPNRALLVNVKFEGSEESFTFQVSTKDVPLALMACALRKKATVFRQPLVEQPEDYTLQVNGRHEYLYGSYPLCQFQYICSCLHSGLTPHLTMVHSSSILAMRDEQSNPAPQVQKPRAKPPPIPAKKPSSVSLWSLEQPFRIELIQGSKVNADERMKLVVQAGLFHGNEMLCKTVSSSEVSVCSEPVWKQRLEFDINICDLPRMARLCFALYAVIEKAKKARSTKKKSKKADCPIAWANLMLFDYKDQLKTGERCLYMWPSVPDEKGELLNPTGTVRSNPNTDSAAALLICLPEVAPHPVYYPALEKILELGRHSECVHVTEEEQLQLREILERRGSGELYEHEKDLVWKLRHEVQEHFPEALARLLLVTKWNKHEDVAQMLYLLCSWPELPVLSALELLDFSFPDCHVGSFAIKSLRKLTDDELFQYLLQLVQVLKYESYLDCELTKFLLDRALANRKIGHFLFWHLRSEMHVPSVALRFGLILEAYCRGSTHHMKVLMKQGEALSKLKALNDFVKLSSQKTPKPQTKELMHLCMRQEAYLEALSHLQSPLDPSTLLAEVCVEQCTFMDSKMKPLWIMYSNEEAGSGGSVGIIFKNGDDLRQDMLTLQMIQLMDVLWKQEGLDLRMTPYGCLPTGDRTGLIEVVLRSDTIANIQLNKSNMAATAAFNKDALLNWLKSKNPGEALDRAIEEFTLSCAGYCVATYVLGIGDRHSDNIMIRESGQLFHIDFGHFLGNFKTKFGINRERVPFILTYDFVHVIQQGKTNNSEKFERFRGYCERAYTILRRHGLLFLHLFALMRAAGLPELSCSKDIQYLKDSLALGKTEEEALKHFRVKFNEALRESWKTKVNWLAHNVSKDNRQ
# Sequence (P27986 whole entry partner, canonical isoform): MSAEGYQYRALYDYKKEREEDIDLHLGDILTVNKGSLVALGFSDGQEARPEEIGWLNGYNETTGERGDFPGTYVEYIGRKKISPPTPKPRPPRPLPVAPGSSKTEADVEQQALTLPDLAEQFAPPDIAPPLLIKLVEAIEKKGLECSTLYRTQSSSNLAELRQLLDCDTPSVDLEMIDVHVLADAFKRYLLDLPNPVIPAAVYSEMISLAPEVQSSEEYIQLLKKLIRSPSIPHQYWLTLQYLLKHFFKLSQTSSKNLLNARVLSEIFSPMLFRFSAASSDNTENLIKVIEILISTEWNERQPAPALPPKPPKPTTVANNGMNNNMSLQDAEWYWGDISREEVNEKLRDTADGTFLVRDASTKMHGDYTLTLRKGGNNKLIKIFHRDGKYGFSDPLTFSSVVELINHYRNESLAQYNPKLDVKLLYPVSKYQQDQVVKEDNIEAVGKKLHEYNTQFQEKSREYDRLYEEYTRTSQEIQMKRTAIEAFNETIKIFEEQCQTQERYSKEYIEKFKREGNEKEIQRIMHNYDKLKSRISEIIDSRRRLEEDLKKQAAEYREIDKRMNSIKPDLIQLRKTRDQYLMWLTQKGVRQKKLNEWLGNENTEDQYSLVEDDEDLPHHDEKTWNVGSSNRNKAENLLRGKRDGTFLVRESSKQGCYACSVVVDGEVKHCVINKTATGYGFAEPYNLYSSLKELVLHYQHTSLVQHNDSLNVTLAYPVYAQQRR
# method.description: PI3K isoform cell-based assay: anti-IgM induced human B-cell proliferation
# Set-up: endogenous in cells; host or cells: human B cells (anti-IgM proliferation); human whole blood (anti-FcεR1 induced CD63)
# measurement.setup: anti-IgM induced human B-cell proliferation
readout: EC50 (nM)
Give bare numbers, in nM.

For record CC[C@H](Nc1ncnc2[nH]cnc12)c1oc2ccccc2c(=O)c1-c1cccc(F)c1 [Compound A] the listed EC50 is 38.1

----------
# tgt: PI3Kβ (Mus musculus, UniProt Q8BTI9)
# Construct: endogenous in cells
# method.description: PI3K isoform cell-based assay: PI3K β-mediated phosphorylation of AKT in 3T3 fibroblasts
# measurement.setup: pAKT by PDGF or lysophosphatidic acid in 3T3 fibroblasts
readout: EC50 (nM)
One number for each entry, in nM.

Consider CC[C@H](Nc1ncnc2[nH]cnc12)c1oc2ccccc2c(=O)c1-c1cccc(F)c1 . Its measured EC50 is 2070

----------
# tgt: PI3Kγ (Homo sapiens, UniProt P48736)
# Sequence (P48736 whole entry, canonical isoform): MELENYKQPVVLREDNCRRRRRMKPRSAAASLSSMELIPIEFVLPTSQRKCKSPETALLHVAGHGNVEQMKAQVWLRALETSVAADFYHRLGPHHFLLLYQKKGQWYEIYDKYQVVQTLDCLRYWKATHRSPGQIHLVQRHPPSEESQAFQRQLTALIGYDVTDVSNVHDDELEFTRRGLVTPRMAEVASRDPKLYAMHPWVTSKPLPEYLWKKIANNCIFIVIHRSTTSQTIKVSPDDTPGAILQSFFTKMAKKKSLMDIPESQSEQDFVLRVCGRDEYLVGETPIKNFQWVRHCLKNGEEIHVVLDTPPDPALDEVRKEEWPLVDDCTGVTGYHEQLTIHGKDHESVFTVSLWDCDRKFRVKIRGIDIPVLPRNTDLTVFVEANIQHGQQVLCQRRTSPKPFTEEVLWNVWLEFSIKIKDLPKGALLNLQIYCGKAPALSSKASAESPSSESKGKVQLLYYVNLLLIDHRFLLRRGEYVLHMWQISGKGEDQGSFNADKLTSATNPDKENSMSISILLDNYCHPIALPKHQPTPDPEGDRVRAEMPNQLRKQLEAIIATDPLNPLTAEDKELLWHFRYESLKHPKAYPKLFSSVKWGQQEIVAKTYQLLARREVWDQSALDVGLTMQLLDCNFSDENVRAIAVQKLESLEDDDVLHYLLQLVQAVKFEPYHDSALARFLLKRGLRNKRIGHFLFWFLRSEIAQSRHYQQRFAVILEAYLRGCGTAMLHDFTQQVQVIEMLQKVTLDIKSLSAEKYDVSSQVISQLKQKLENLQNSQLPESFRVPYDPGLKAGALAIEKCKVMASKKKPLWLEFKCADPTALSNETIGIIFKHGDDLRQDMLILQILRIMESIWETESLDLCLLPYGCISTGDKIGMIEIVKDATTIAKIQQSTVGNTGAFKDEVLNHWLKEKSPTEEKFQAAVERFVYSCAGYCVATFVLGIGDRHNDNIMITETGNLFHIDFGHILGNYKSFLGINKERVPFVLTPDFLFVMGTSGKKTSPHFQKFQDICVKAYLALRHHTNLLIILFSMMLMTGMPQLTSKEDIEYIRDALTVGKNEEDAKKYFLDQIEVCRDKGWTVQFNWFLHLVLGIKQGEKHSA
# method.description: PI3K isoform enzyme assay (HTRF), PI3Kγ
# measurement.setup: 100 μM ATP
readout: IC50 (nM)
Numbers only, in nM.

The compound CC[C@H](Nc1ncnc2[nH]cnc12)c1oc2ccccc2c(=O)c1-c1cccc(F)c1 showed IC50 equal to 33.2

----------
# tgt: PI3Kα (Mus musculus)
# Construct: endogenous in cells
# method.description: PI3K isoform cell-based assay: PI3K α-mediated phosphorylation of AKT in 3T3 fibroblasts
# measurement.setup: pAKT by PDGF or lysophosphatidic acid in 3T3 fibroblasts
readout: EC50

Lab book: EC50 of CC[C@H](Nc1ncnc2[nH]cnc12)c1oc2ccccc2c(=O)c1-c1cccc(F)c1 noted as > 10 µM

----------
# tgt: PI3Kγ (Homo sapiens, UniProt P48736)
# method.description: fMLP induced CD63 expression in human whole blood
# measurement.setup: whole blood from healthy human subjects; flow cytometry; read-out: EC50 of fMLP (PI3Kγ) mediated CD63 expression
readout: pEC50
Numbers only, as −log10 of the molar value.

Value of measured pEC50 for the entry CC[C@H](Nc1ncnc2[nH]cnc12)c1oc2ccccc2c(=O)c1-c1cccc(F)c1 : 7.42

----------
# tgt: PI3Kδ (Homo sapiens, UniProt O00329)
# method.description: anti-FcεR1 induced CD63 expression in human whole blood
# Type: cell-based
# Design: endogenous in cells; host or cells: human whole blood (anti-FcεR1 induced CD63)
# measurement.setup: whole blood from healthy human subjects; flow cytometry; read-out: EC50 of anti-FcεR1 (PI3Kδ) mediated CD63 expression
readout: pEC50
Numbers only, as −log10 of the molar value.

Lookup result for CC[C@H](Nc1ncnc2[nH]cnc12)c1oc2ccccc2c(=O)c1-c1cccc(F)c1 ; measured pEC50: 7.41
